Data origin: patent US20200109190A1

Biological target: LukSF (Staphylococcus aureus)
Test: cell-based or functional assay
Assignment: determine reported IC50 (LukSF) HL-60 for the given binders.
Entry rule: numbers only, all in µg/mL.

Prompt: Requested read-out: IC50 (LukSF) HL-60. Entry: SAN481-T-YTE (antibody, V domains shown, also called QD3; SAN481VH28T-YTE) VH: QLQLVESGGGAVQPGRSLKLSCAASGFTFSTYAMHWVRQAPGRGLEWVAVTSFDGSNEYYIDSVKGRFTISRDNTKNTLYLQMTGLRVEDTALYFCARDEYTGGWYSVGYWGQGTLVTVSS VL: QSVLTQPPSASGTPGQRVTISCSGNSYNIGSNSVYWYQQFPGTAPKLLISRSIQRPSGVPDRFSGSKSVTSASLAISGLRSEDEADYYCAAWDDSLRAWVFGGGTKLTVLG
Response: 0.17

Prompt: Please report the recorded IC50 (LukSF) HL-60 for SAN481-SY-YTE (antibody, V domains shown, also called QD2; SAN481VL26S32Y-YTE) VH: QLQLVESGGGAVQPGRSLKLSCAASGFNFSTYAMHWVRQAPGRGLEWVAVTSFDGSNEYYIDSVKGRFTISRDNTKNTLYLQMTGLRVEDTALYFCARDEYTGGWYSVGYWGQGTLVTVSS VL: QSVLTQPPSASGTPGQRVTISCSGSSYNIGSNYVYWYQQFPGTAPKLLISRSIQRPSGVPDRFSGSKSVTSASLAISGLRSEDEADYYCAAWDDSLRAWVFGGGTKLTVLG .
Response: 0.18

Prompt: IC50 (LukSF) HL-60 for SAN481-TF-YTE (antibody, V domains shown, also called QD4; SAN481-VH28T100E-YTE) VH: QLQLVESGGGAVQPGRSLKLSCAASGFTFSTYAMHWVRQAPGRGLEWVAVTSFDGSNEYYIDSVKGRFTISRDNTKNTLYLQMTGLRVEDTALYFCARDEYTGGFYSVGYWGQGTLVTVSS VL: QSVLTQPPSASGTPGQRVTISCSGNSYNIGSNSVYWYQQFPGTAPKLLISRSIQRPSGVPDRFSGSKSVTSASLAISGLRSEDEADYYCAAWDDSLRAWVFGGGTKLTVLG ?
Response: 0.81

Prompt: Tell me the measured IC50 (LukSF) HL-60 of SAN481-SYT-YTE (antibody, V domains shown, also called QD5) VH: QLQLVESGGGAVQPGRSLKLSCAASGFTFSTYAMHWVRQAPGRGLEWVAVTSFDGSNEYYIDSVKGRFTISRDNTKNTLYLQMTGLRVEDTALYFCARDEYTGGWYSVGYWGQGTLVTVSS VL: QSVLTQPPSASGTPGQRVTISCSGSSYNIGSNYVYWYQQFPGTAPKLLISRSIQRPSGVPDRFSGSKSVTSASLAISGLRSEDEADYYCAAWDDSLRAWVFGGGTKLTVLG , please.
Response: 0.16
